- Study System: T1, human parathyroid hormone type 2 receptor (PTH2 receptor) (human, UniProt P49190 25-550)
- T1 construct: whole, on cells; also called human PTH2 receptor; hPTH2 receptor
- T1 sequence (P49190 25-550): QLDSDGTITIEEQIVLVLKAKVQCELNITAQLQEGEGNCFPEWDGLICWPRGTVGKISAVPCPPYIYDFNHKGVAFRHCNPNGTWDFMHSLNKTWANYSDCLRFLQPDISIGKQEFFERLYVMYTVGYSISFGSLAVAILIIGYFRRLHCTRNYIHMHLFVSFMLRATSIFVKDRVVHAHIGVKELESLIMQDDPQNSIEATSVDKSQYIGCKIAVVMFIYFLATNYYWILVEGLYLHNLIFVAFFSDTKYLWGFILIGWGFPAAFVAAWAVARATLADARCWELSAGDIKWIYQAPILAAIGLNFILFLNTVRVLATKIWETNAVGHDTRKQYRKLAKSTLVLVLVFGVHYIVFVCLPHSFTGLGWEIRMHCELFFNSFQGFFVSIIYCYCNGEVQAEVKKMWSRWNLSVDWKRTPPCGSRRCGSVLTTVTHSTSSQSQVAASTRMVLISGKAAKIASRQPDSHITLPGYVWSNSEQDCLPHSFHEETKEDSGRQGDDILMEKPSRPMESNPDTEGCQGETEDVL
- Assay Procedure: displacement of [125I]TIP39, 293PTH2 membranes, centrifugation assay, 10 µM GTPγS
Observed Property: IC50 (nM)
Answers are plain numbers, in nM.

Consider the binder shown here: DAAFRERARLLAALERRHWLNSYMHKLLVLDAP (also called bTIP(7-39)) [TIP(7-39)] What is its recorded IC50?
98
